Each entry below carries its recorded inhibition at 20 µM.
Biological target: KRas Q61H mutant (Homo sapiens, UniProt P01116, Q61H)
Construct: made in house
Assay: Ras GTP binding domain inhibition assay (labeled-GTP competition, cell-free)
Conditions: at 20 μM, with SOS; read-out: KRas Q61H mutant + SOS: % inh.

Use these answered entries as a reference point.
Task item: Quote inhibition at 20 µM reported for "CO[C@H]1CC[C@@H](Nc2nc(-c3nccn3C)nc3sc(-c4ccn(C(C)C)n4)c(C)c23)C1" please.
Reply: 76 to 100%

Task item: Please look at this compound and report its inhibition at 20 µM: "CO[C@H]1C[C@@H](Nc2nc(-c3nccn3C)nc3sc(-c4ccn(C(C)C)n4)c(C)c23)C[C@H]1OC"
Reply: 76 to 100%

Task item: State its inhibition at 20 µM: Cc1c(-c2ccn(C(C)C)n2)sc2nc(-c3nccn3C)nc(NCCC3CCC(=O)N3)c12 (racemic)
Reply: 76 to 100%

Attention now turns to another entry.
Task item: Tell me its inhibition at 20 µM given COCCn1ccnc1-c1nc(N[C@@H]2CC[C@H](OC)C2)c2ccsc2n1 (racemic) as the entry.
Reply: 76 to 100%

* * *

Target: KRas Q61H mutant (Homo sapiens, UniProt P01116, Q61H)
Construct: made in house
Assay: Ras GTP binding domain inhibition assay (labeled-GTP competition, cell-free)
Settings: at 20 μM, with SOS; read-out: KRas Q61H mutant + SOS: % inh.
measured quantity: inhibition at 20 µM

Study these solved cases before continuing.
Task item: Specify the recorded inhibition at 20 µM for "Cn1nccc1-c1nc(O)c2scc(-c3ccccn3)c2n1" , system: KRas Q61H mutant (Homo sapiens, UniProt P01116, Q61H).
Reply: 26 to 50%

Task item: # return inhibition at 20 µM of "CO[C@H]1CC[C@@H](Nc2nc(-c3nccn3C)nc3sc(-c4ccn(C(C)C)n4)c(C)c23)CC1" (system: KRas Q61H mutant (Homo sapiens, UniProt P01116, Q61H))
Reply: 26 to 50%

Task item: Give measured inhibition at 20 µM for CO[C@H]1CC[C@@H](Nc2nc(-c3nccn3C)nc3sc(-c4cc[nH]n4)c(-c4ccccc4)c23)C1 (racemic) (KRas Q61H mutant (Homo sapiens, UniProt P01116, Q61H)).
Reply: 1 to 25%

Task item: Answer briefly: inhibition at 20 µM recorded on KRas Q61H mutant (Homo sapiens, UniProt P01116, Q61H) for COCC1CCN(c2nc(-c3ccccn3)nc3sc(-c4ccn(C(C)C)n4)c(C)c23)C1 (racemic)
Reply: 51 to 75%

Task item: Under KRas Q61H mutant (Homo sapiens, UniProt P01116, Q61H): report inhibition at 20 µM of "CCOCCn1ccnc1-c1nc(O)c2scc(-c3ccccn3)c2n1" .
Reply: 51 to 75%

---
Task item: Tell me its inhibition at 20 µM on KRas Q61H mutant (Homo sapiens, UniProt P01116, Q61H): "COCCCNc1nc(-c2nccn2C)nc2sc(-c3ccn(C(C)C)n3)c(C)c12"
Reply: 76 to 100%

Task item: Under KRas Q61H mutant (Homo sapiens, UniProt P01116, Q61H): report inhibition at 20 µM of CO[C@H]1CC[C@@H](Nc2nc(C(=O)Nc3ccccn3)nc3sccc23)C1 (racemic) .
Reply: 0%

Task item: Return reported inhibition at 20 µM for target or system KRas Q61H mutant (Homo sapiens, UniProt P01116, Q61H), item "COCCNC(=O)c1nc(O)c2scc(-c3ccccn3)c2n1" .
Reply: 26 to 50%

* * *

Tested on: Akt phosphorylation in Panc-1 cells
Assay: Western AKT cell-based phosphorylation assay
Set-up: species or system human
Details: at 10 μM, values in brackets < > are activation %, not inhibition
Protocol: Human Tumor-Derived Pancreatic Cancer Cell Line Panc-1 was Purchased from […] Method: Cells were plated at 350000 cells/well density in a 12-well plate, allowed 3 hours to adhere to the plate, then starved in the appropriate medium in the presence of 0.5% FBS overnight. […] Protein concentration was assessed by BCA protein assay (Thermo Scientific). Phosphorylation level of Akt was determined by western blot. […]
measured quantity: % inh of AKT phosphorylation in PANC-1

Answered cases to consult:
Task item: Name the recorded % inh of AKT phosphorylation in PANC-1 of the molecule listed here: CO[C@H]1CC[C@@H](Nc2nc(-c3nccn3C)nc3sc(-c4cn(C)cn4)c(-c4ccccc4)c23)C1 (racemic)
Reply: 0 (0% inhibition)

Task item: Give recorded % inh of AKT phosphorylation in PANC-1. "COCCn1ccnc1-c1nc(N[C@H]2C[C@@H](OC)C2)c2ccsc2n1"
Reply: 0 (0% inhibition)

Task item: Look up and state reported % inh of AKT phosphorylation in PANC-1 for "COCCn1c(-c2nc(O)c3scc(-c4ccccn4)c3n2)nc2ccccc21"
Reply: <A>

Task item: Return reported % inh of AKT phosphorylation in PANC-1. Input molecule: COCCNC(=O)c1nc(N[C@@H]2CC[C@H](OC)C2)c2ccsc2n1 (racemic)
Reply: 0 (0% inhibition)

Task item: Annotate the molecule "Cn1ccnc1-c1nc(O)c2scc(-c3ncccc3F)c2n1" with its measured % inh of AKT phosphorylation in PANC-1.
Reply: 0 (0% inhibition)

***
Task item: Quickly give me recorded % inh of AKT phosphorylation in PANC-1 for "CO[C@H]1C[C@@H](Nc2nc(-c3nccn3C)nc3sc(-c4cn(C)cn4)c(-c4ccccc4)c23)C1"
Reply: 0 (0% inhibition)

Task item: Provide one value: measured % inh of AKT phosphorylation in PANC-1 of "Oc1nc(-c2nccn2CCOCC(F)(F)F)nc2c(-c3ccccn3)csc12"
Reply: <D>

* * *

Tested on: Akt phosphorylation in Panc-1 cells
Experiment: Western AKT cell-based phosphorylation assay
Parameters: species or system human
Settings: at 10 μM, values in brackets < > are activation %, not inhibition
Experimental: Human Tumor-Derived Pancreatic Cancer Cell Line Panc-1 was Purchased from […] Method: Cells were plated at 350000 cells/well density in a 12-well plate, allowed 3 hours to adhere to the plate, then starved in the appropriate medium in the presence of 0.5% FBS overnight. […] Protein concentration was assessed by BCA protein assay (Thermo Scientific). Phosphorylation level of Akt was determined by western blot. […]
measured quantity: % inh of AKT phosphorylation in PANC-1

These solved cases illustrate the format of a correct answer.
Task item: Provide % inh of AKT phosphorylation in PANC-1 value for the following compound: COCC1COCCN1c1nc(-c2nccn2C)nc2sc(-c3ccn(C(C)C)n3)c(C)c12 (racemic) [Compound 41]
Reply: 0 (0% inhibition)

Task item: Write down % inh of AKT phosphorylation in PANC-1 measured for item Cc1c(-c2ccn(C(C)C)n2)sc2nc(-c3nccn3C)nc(NCCC3CCC(=O)N3)c12 (racemic) [Compound 56]
Reply: 0 (0% inhibition)

Task item: Fill in reported % inh of AKT phosphorylation in PANC-1 for this entry: Cc1c(-c2ccn(C(C)C)n2)sc2nc(-c3nccn3C)nc(NC[C@@H]3CCC(=O)N3)c12 [Compound 51]
Reply: 0 (0% inhibition)

Task item: Given COc1nc(-c2nccn2C)nc2c(-c3ncccc3F)csc12 [Compound 95] , respond with its % inh of AKT phosphorylation in PANC-1.
Reply: 0 (0% inhibition)

Task item: Find the measured % inh of AKT phosphorylation in PANC-1 of CO[C@H]1CC[C@H](Nc2nc(-c3nccn3C)nc3sc(-c4ccn(C(C)C)n4)c(C)c23)CC1 [Compound 54] and report it.
Reply: <A>

Further cases:
Task item: Give me measured % inh of AKT phosphorylation in PANC-1, please, for this compound: COCCNC(=O)c1nc(O)c2scc(-c3ccccn3)c2n1 [Compound 21]
Reply: 0 (0% inhibition)

Task item: Return value of % inh of AKT phosphorylation in PANC-1 for input COC1CCCN(c2nc(-c3nccn3C)nc3sc(-c4ccn(C(C)C)n4)c(C)c23)C1 (racemic) [Compound 40] , no commentary.
Reply: D (76-100% inhibition)

Task item: Return the recorded % inh of AKT phosphorylation in PANC-1 value; entry: COCC1CCN(c2nc(-c3ccccn3)nc3sc(-c4ccn(C(C)C)n4)c(C)c23)C1 (racemic) [Compound 71]
Reply: D (76-100% inhibition)

* * *

Biological target: Rho-A (Homo sapiens)
Assay: Ras GTP binding domain inhibition assay (labeled-GTP competition, cell-free)
Parameters: made in house
Details: without SOS, read-out: Rho-A: % inh.
Entries and their measured inhibition at 20 µM follow.

# example entries with known answers
Task item: Please list inhibition at 20 µM recorded for the molecule COCC1CCN(c2nc(-c3ccccn3)nc3sc(-c4ccn(C(C)C)n4)c(C)c23)C1 (racemic) [Compound 71]
Reply: 76 to 100%

Task item: Give recorded inhibition at 20 µM. CCOCCn1ccnc1-c1nc(O)c2scc(-c3ccccn3)c2n1 [Compound 80]
Reply: 51 to 75%

Task item: Identify the reported inhibition at 20 µM for the following entry. COc1cccc(Nc2nc(-c3nccn3C)nc3sc(-c4ccn(C(C)C)n4)c(C)c23)c1 [Compound 64]
Reply: 26 to 50%

Task item: Specify reported inhibition at 20 µM for the molecule shown: CO[C@H]1CC(Nc2nc(-c3nccn3C)nc3sc(-c4ccn(C(C)C)n4)c(C)c23)C[C@@H]1OC (racemic) [Compound 44]
Reply: 76 to 100%

Task item: Look up and report measured inhibition at 20 µM for this entry: COCC1COCCN1c1nc(-c2nccn2C)nc2sc(-c3ccn(C(C)C)n3)c(C)c12 (racemic) [Compound 41]
Reply: 51 to 75%

***
Task item: Given the molecule COC1CCCN(c2nc(-c3nccn3C)nc3sc(-c4ccn(C(C)C)n4)c(C)c23)C1 (racemic) [Compound 40] , write its reported inhibition at 20 µM.
Reply: 76 to 100%

Task item: For the molecule Cn1ccc(-c2nc(O)c3scc(-c4ccccn4)c3n2)n1 [Compound 90] , give its reported inhibition at 20 µM.
Reply: 51 to 75%

Task item: Fill in reported inhibition at 20 µM for this entry: COCCNc1nc(-c2nccn2C)nc2sc(-c3ccn(C(C)C)n3)c(C)c12 [Compound 35]
Reply: 76 to 100%
